# measured target: T1, BANP BEN S313A (human, UniProt Q8N9N5 205-325, S313A)
# T1 sequence: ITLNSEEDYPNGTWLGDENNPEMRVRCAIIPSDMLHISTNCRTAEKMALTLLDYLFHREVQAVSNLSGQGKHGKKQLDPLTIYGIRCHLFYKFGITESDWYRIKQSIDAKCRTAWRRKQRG
# protocol description: ITC; ITC: 20 mM Tris pH 7.5, 200 mM NaCl, 2 mM beta-mercaptoethanol, 20 C; EMSA: 20 mM Tris pH 7.0, 200 mM NaCl, 2 mM DTT, 4 C, 1.2% agarose in TAE
# experimental setup: protein: recombinant; tags: His-SUMO or His-MBP, cleaved; chain copies: 2; blunt, self-complementary
reported metric: Kd (µM)
Your answer should be a plain number; it is taken to be in µM.

For this binder ( 12-CGCG (dsDNA) DNA 1: ATCTCGCGAGAT DNA 2: ATCTCGCGAGAT ), measured Kd is 7.9
